test system: Escherichia coli; test: Antibacterial activity against Escherichia coli 12140 infected in sc dosed mouse administered at 1 to 5 hrs measured for 3 days; assay type: functional; conditions: Escherichia coli, 12140, sc; read-out: PD50
ENDPOINT: log10(ED50) (log10 of the value in mg/kg)
Hello, just confirming the data are log10 of ED50 with units of mg/kg.

Consider the worked cases shown below.
Cn1nnnc1SCC1=C(C(=O)[O-])N2C(=O)[C@@H](NC(=O)C(NC(=O)C3CO3)c3ccccc3)[C@H]2SC1.[Na+] (mixture of isomers) : 1.65
CC(=O)OCC1=C(C(=O)[O-])N2C(=O)[C@@H](NC(=O)C(NC(=O)C3CO3)c3ccccc3)[C@H]2SC1.[Na+] (mixture of isomers) : 2.00
CC(=O)OCC1=C(C(=O)[O-])N2C(=O)[C@@H](NC(=O)C(NC(=O)C3OC3C(=O)[O-])c3ccccc3)[C@H]2SC1.[Na+].[Na+] (single isomer, unassigned; diastereomer 1) : 1.10
Cn1nnnc1SCC1=C(C(=O)[O-])N2C(=O)[C@@H](NC(=O)C(NC(=O)C3CCC(C(=O)[O-])O3)c3ccccc3)[C@H]2SC1.[Na+].[Na+] (mixture of isomers) : 1.40
Cn1nnnc1SCC1=C(C(=O)[O-])N2C(=O)[C@@H](NC(=O)[C@H](NC(=O)[C@H]3O[C@@H]3C(=O)[O-])c3ccccc3)[C@H]2SC1.[Na+].[Na+] (mixture of isomers) : 2.18

Batch: log10(ED50) for all items listed.
1. Cn1nnnc1SCC1=C(C(=O)[O-])N2C(=O)[C@@H](NC(=O)C(NC(=O)CCCC(=O)[O-])c3ccccc3)[C@H]2SC1.[Na+].[Na+] (stereo partly specified)
2. CC(=O)OCC1=C(C(=O)[O-])N2C(=O)[C@@H](NC(=O)C(NC(=O)[C@@H]3O[C@@H]3C(=O)[O-])c3ccccc3)[C@H]2SC1.[Na+].[Na+] (single isomer, unassigned; diastereomer 2)
3. CC(=O)OCC1=C(C(=O)[O-])N2C(=O)[C@@H](NC(=O)C(NC(=O)CCCC(=O)[O-])c3ccccc3)[C@H]2SC1.[Na+].[Na+] (stereo partly specified)
4. CC1(C)S[C@@H]2[C@H](NC(=O)C(C(=O)O)c3ccccc3)C(=O)N2[C@H]1C(=O)O (stereo partly specified)
5. CC(=O)OCC1=C(C(=O)O)N2C(=O)[C@@H](NC(=O)C(NC(=O)CSCC(=O)O)c3ccccc3)[C@H]2SC1 (stereo partly specified)
6. Cn1nnnc1SCC1=C(C(=O)[O-])N2C(=O)[C@@H](NC(=O)C(NC(=O)C3OC3C(=O)[O-])c3ccccc3)[C@H]2SC1.[Na+].[Na+] (mixture of isomers)

1. 2.00
2. 1.86
3. 2.00
4. 1.40
5. 1.81
6. 0.85

* * *

tested on: Escherichia coli; assay: Antibacterial activity against Escherichia coli 12140 infected in sc dosed mouse administered at 1 to 5 hrs measured for 3 days; assay type: functional; details: Escherichia coli, 12140, sc; read-out: PD50
Provide the recorded ED50 for the entries that follow.

Consider the worked cases shown below.
CC(=O)OCC1=C(C(=O)[O-])N2C(=O)[C@@H](NC(=O)C(NC(=O)C3CCC(C(=O)[O-])O3)c3ccccc3)[C@H]2SC1.[Na+].[Na+] (stereo partly drawn) : 140 mg/kg
CC(=O)OCC1=C(C(=O)O)N2C(=O)[C@@H](NC(=O)Cc3cccs3)[C@H]2SC1 : 50 mg/kg

Now consider a different compound.
Which ED50 value belongs to CC(=O)OCC1=C(C(=O)[O-])N2C(=O)[C@@H](NC(=O)C(NC(=O)[C@H]3C[C@H]3C(=O)[O-])c3ccccc3)[C@H]2SC1.[Na+].[Na+] (mixture of isomers) ?
25 mg/kg

These measurements were taken from ChEMBL document CHEMBL3271935.
